Target: T1, SCREAM (SCRM), recombinant full-length protein (1-494) (A. thaliana, UniProt Q9LSE2 1-494)
T1 construct: SCRM (ICE1), A. thaliana, residues 1-494; called full-length in the results; The methods describe thrombin removal of GST for all recombinant proteins; For the BLI runs of SCRM with MUTE one partner must have kept GST (anti-GST probes); also called ICE1; source: E. coli BL21, purified (glutathione resin, thrombin digestion, Superdex-200); not shown: GST, N-terminal, cleaved
T1 sequence (looked up): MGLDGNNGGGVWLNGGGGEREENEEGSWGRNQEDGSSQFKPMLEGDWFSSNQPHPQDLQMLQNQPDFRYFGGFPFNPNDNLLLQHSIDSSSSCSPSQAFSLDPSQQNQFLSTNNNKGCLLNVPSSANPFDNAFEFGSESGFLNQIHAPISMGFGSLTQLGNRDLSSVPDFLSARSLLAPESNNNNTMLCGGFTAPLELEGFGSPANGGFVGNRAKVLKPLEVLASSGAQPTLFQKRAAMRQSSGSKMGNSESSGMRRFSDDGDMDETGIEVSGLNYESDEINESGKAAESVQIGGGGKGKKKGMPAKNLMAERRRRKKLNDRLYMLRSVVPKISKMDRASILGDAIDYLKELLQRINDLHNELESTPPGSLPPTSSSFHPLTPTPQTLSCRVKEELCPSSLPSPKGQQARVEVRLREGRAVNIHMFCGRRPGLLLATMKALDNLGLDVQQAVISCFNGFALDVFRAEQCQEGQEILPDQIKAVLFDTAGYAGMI
Assay: BLI; SCRM with MUTE or MUTE mutants, no compound; Octet Red96, anti-GST probes loaded with 500 nM GST-tagged protein; 30 °C; 1x PBS, 2% DMSO, 0.02% Tween20; 1:1 model; KD (SS) from steady-state analysis
Conditions: both partners purified
measurement-label: pKd
Note on pKd: it is the negative log10 of concentration, concentration in mol/L.

binder="MUTE_R133A_R134A, recombinant (natural protein, A. thaliana, UniProt Q9M8K6 1-202, looked up, MUTE, A. thaliana, with R133A and R134A; source: E. coli BL21, purified (glutathione resin)) MSHIAVERNRRRQMNEHLKSLRSLTPCFYIKRGDQASIIGGVIEFIKELQQLVQVLESKKRRKTLNRPSFPYDHQTIEPSSLGAATTRVPFSRIENVMTTSTFKEVGACCNSPHANVEAKISGSNVVLRVVSAAIVGQLVKIISVLEKLSFQVLHLNISSMEETVLYFFVVKIGLECHLSLEELTLEVQKSFVSDEVIVSTN" number=7.65
binder="MUTE_E162A_E163A, recombinant (natural protein, A. thaliana, UniProt Q9M8K6 1-202, looked up, MUTE, A. thaliana, with E162A and E163A; source: E. coli BL21, purified (glutathione resin)) MSHIAVERNRRRQMNEHLKSLRSLTPCFYIKRGDQASIIGGVIEFIKELQQLVQVLESKKRRKTLNRPSFPYDHQTIEPSSLGAATTRVPFSRIENVMTTSTFKEVGACCNSPHANVEAKISGSNVVLRVVSRRIVGQLVKIISVLEKLSFQVLHLNISSMAATVLYFFVVKIGLECHLSLEELTLEVQKSFVSDEVIVSTN" number=7.94

Inquiry: Recorded pKd of MUTE_R133A_R134A_E162A_E163A, recombinant (natural protein, A. thaliana, UniProt Q9M8K6 1-202, looked up, MUTE, A. thaliana, with R133A, R134A, E162A and E163A; source: E. coli BL21, purified (glutathione resin)) MSHIAVERNRRRQMNEHLKSLRSLTPCFYIKRGDQASIIGGVIEFIKELQQLVQVLESKKRRKTLNRPSFPYDHQTIEPSSLGAATTRVPFSRIENVMTTSTFKEVGACCNSPHANVEAKISGSNVVLRVVSAAIVGQLVKIISVLEKLSFQVLHLNISSMAATVLYFFVVKIGLECHLSLEELTLEVQKSFVSDEVIVSTN , please.
Reply text: 7.58

Numbers sourced from paper PMC11500415.
